The reported numbers originate from PubChem BioAssay (NCATS).

Target: Glucocorticoid receptor (Homo sapiens)
Assay: qHTS assay for small molecule agonists of glucocorticoid receptor signaling (AID 588532)
Conditions: HeLa MMTV-bla, beta-lactamase ratio, agonist, 18 h; stronger effect = higher value; percent of dexamethasone control, DMSO zero
Text: NIH Chemical Genomics Center [NCGC] U.S. Environmental Protection Agency [EPA] National Institutes of Environmental Health Sciences [NIEHS] National Toxicology Program [NTP] […] NCGC Assay Protocol Summary Using a beta-lactamase reporter-gene under control of glucocorticoid response element (GRE), a cell-based assay [CellSensor MMTV-bla HeLa cell line assay developed by Invitrogen] was used to measure GR ligands signaling. […] Detection; Fluorescence; Envision plate reader
Records with an inconclusive call do not appear.
Would you please tag the item Met when its activation is -10% or above, and Not met when it is below?

Worked cases, answers included:
{"molecule": "C[C@]12CCC(=O)C(O)=C1CC[C@@H]1[C@@H]2CC[C@]2(C)C(=O)CC[C@@H]12", "class.name": "Met"}
{"molecule": "C=C(C)[C@H]1Cc2c(ccc3c2O[C@@H]2COc4cc(OC)c(OC)cc4[C@@H]2C3=O)O1", "class.name": "Not met"}
{"molecule": "C[C@H]1O[C@@H](O[C@H]2[C@@H](O)C[C@H](O[C@H]3[C@@H](O)C[C@H](O[C@H]4CC[C@@]5(C)[C@H](CC[C@@H]6[C@@H]5CC[C@]5(C)[C@@H](C7=CC(=O)OC7)CC[C@]65O)C4)O[C@@H]3C)O[C@@H]2C)C[C@H](O)[C@@H]1O", "class.name": "Not met"}

Determine whether measured activation meets or exceeds -10% for Oc1cc(Cl)ccc1Oc1ccc(Cl)cc1Cl
Not met

Next molecule: CC(COc1ccccc1)N(CCCl)Cc1ccccc1 (stereo unspecified)
Not met

Try this molecule next: CCOP(=S)(OCC)Oc1cc(C)nc(C(C)C)n1
Met
